In this section we review reported TGI values for a set of compounds.
system: SNB-19 CNS; assay: NCI tumour cell line growth inhibition, 48 h

compound	TGI
Cc1ccccc1C1=C/C(=C(\SS/C(C(=O)c2ccc(OCC(=O)O)c(Cl)c2Cl)=C2\C=C(c3ccccc3C)SS2)C(=O)c2ccc(OCC(=O)O)c(Cl)c2Cl)SS1	> 84.5 µM
COc1ccc2c(c1)OCC1c3cc(O)ccc3OC21 (stereo unspecified)	> 100 µM
Cc1nnc(N)nc1/C=C\c1ccc(N(C)C)cc1	> 100 µM

Problem: So what's the measured TGI for this one? COc1cc(/C=C/c2ccc(/C=C/c3cc(OC)c(OC)c(OC)c3)cc2)cc(OC)c1OC
Solution: 32.6 µM

Problem: Data request, read-out TGI, for CCOC(=O)c1nc2cc(C(F)(F)F)ccc2nc1Nc1ccc(OC)c(OC)c1
Solution: > 100 µM

Problem: Recorded TGI of C=C(CN(C)C)C1(c2ccccc2)CC2(CCCC2)C(=O)O1 (stereo unspecified) , please.
Solution: > 100 µM

Problem: Consider the compound O=C(COc1cccc(/C=C2/Oc3ccccc3C2=O)c1)Nc1nccs1 and give its measured TGI.
Solution: > 100 µM

Problem: Form field: reported TGI of CN(C)CCc1ccc(Cl)cc1Cl
Solution: > 100 µM

###

system: HT29 colon; test: NCI tumour cell line growth inhibition, 48 h
measured parameter: TGI

compound	TGI
Cc1cnc(Cl)nc1C(C#N)c1nc2ccccc2s1 (configuration not stated)	> 100 µM
CN1CCN(c2ccc(N3Cc4ccccc4OC4=C3C(=O)c3c(O)ccc(O)c3C4=O)cn2)CC1	0.562 µM
CCOCc1cc(=O)c2c(O)cc3c(c2o1)CCC(C)(C)O3	> 100 µM
CCC1=C(C)c2cc3[n-]c(cc4nc(c(C=O)c5[n-]c(cc1n2)c(C)c5CC)C(C)=C4CC)c(C)c3CC.[Ni+2]	> 100 µM
N#Cc1c(N)nc(NCc2ccccc2)c(C#N)c1-c1ccc(Cl)cc1	> 100 µM
C/C(=N\NC(C)(C)C)c1sc(-c2nc(C)c(/C(C)=N/NC(C)(C)C)s2)nc1C	> 100 µM
Cc1ccccc1OCC(COC(=O)Nc1ccccc1)OC(=O)Nc1ccccc1 (configuration not stated)	> 100 µM
CCOC(=O)C(Cc1ccc([N+](=O)[O-])cc1)NC(=O)CC1c2ccccc2-c2ccccc21 (configuration not stated)	> 100 µM
O=C(O)c1c(-c2ccccc2)c(=O)[nH]c2ccccc12	> 100 µM
N#CC(NCCc1ccccc1)c1ccccc1 (configuration not stated)	> 100 µM

Problem: Requested read-out: TGI. Entry: COc1ccc(-c2nc3ccccc3c(=O)[nH]2)c(OC)c1
Solution: > 100 µM

Problem: Which measured TGI value corresponds to CN(C)CCc1ccc(Cl)cc1Cl ?
Solution: > 100 µM

Problem: Item under review: COP(=O)(OC)C(C)(C)NC(=O)NC(F)(F)F . Reported TGI?
Solution: > 100 µM

Problem: Dear colleague, I am looking for the recorded TGI of the following compound: CN1C(=O)N(C)C2C1NN=c1s/c(=C\c3ccccc3F)c(=O)n12 (configuration not stated)
Solution: > 36.7 µM

Problem: Quick one: TGI for S=C(N/N=C/c1ccccc1)NC12CC3CC(CC(C3)C1)C2 ?
Solution: 26.5 µM

Problem: Looking for the measured TGI of O=C1Cc2c([nH]c3ccc([N+](=O)[O-])cc23)-c2ccccc2N1 , can you help?
Solution: 4.46 µM

Problem: Data request, read-out TGI, for COc1ccc(N=Nc2c(O)ccc3ccccc23)cc1
Solution: 38 µM

Problem: Entry under review: Cc1cn(CCCCCCOC(=O)NC(CCCN=C(N)N)C(=O)O)c(=O)[nH]c1=O (configuration not stated) . Reported TGI?
Solution: > 100 µM

Problem: Quick one: TGI for CCOC(=O)C1C(=O)CC(O)(c2ccccc2)C(C(=O)OCC)C1c1ccc(N(C)C)cc1 (configuration not stated) ?
Solution: > 58.5 µM

###

Recorded TGI for the following compounds
tested on: EKVX NSCLC; experiment: NCI tumour cell line growth inhibition, 48 h
Where a SMILES comes first, the peptide text is derived from it. The star is where a group is joined. Boc = CC(C)(C)OC(=O)*

Known TGI results, listed for orientation:
compound	experimental system	result
CC(C)(C)c1cc(Cc2ccc([N+](C)(C)C)cc2)c(O)c(C(C)(C)C)c1	EKVX NSCLC	> 100 µM
COc1ccc2c(-c3ccc(OCCN(C)C)cc3)c(Oc3ccccc3)c(=O)oc2c1	EKVX NSCLC	23.5 µM
O=C(Nc1ccccc1Cl)c1cc(S(=O)(=O)Nc2n[nH]c(=O)n2-c2ccccc2)c(S)cc1Cl	EKVX NSCLC	> 100 µM
Cn1c2c(c3ccc(-c4ccn[nH]4)cc3c1=O)C(=O)c1ccccc1-2	EKVX NSCLC	> 100 µM
CCCCCC(/C=C/C1CCC(=O)C1)OCOCCOC (configuration not stated)	EKVX NSCLC	> 100 µM
O=C(COc1cccc(/C=C2/Oc3ccccc3C2=O)c1)Nc1nccs1	EKVX NSCLC	> 100 µM
CC(C)CCC[C@@H](C)[C@H]1CCC2C3=CCn4c(=O)ccc(=O)n4C3CC[C@@]21C (some centres not stated)	EKVX NSCLC	2.94 µM
S=C(N/N=C/c1ccccc1)NC12CC3CC(CC(C3)C1)C2	EKVX NSCLC	> 100 µM
C=CCCCC(C#N)(c1ccccc1)N1CCCC1 (configuration not stated)	EKVX NSCLC	> 100 µM
COc1ccc(N=Nc2c(O)ccc3ccccc23)cc1	EKVX NSCLC	34.8 µM

Problem: # query: TGI | item Cc1ccccc1OCC(COC(=O)Nc1ccccc1)OC(=O)Nc1ccccc1 (configuration not stated) | system: EKVX NSCLC
Solution: > 100 µM

Problem: Query for EKVX NSCLC: what TGI does the record show for CCOC(=O)C(NC(=O)CC)(Nc1ccc(S(=O)(=O)Nc2ncccn2)cc1)C(F)(F)F (configuration not stated) ?
Solution: > 100 µM

Problem: Test system EKVX NSCLC; read-out TGI; what value for Cc1coc2c1[C@@H](O)[C@@]1(C)[C@H](CCC[C@@H]1C)C2 ?
Solution: > 100 µM

Problem: Kindly state the measured TGI obtained for O=C(Nc1nc2ncn(CCNCCn3cnc4nc(NC(=O)c5ccccc5)[nH]c(=O)c43)c2c(=O)[nH]1)c1ccccc1 with EKVX NSCLC.
Solution: > 100 µM

Problem: Which measured TGI belongs to N#C/C(=C/c1ccco1)C(=O)c1ccccc1 , tested on EKVX NSCLC?
Solution: > 100 µM

Problem: Lab request: please report TGI under test system EKVX NSCLC for O=C1C(=C/C=C2/SC(c3ccccc3)(c3ccccc3)c3ccccc32)C(=O)c2ccccc21
Solution: > 100 µM

Problem: Param readout= TGI; system= EKVX NSCLC; entry= CC(NC(=O)OC(C)(C)C)C(=O)NC(Cc1ccccc1)C(=O)NCC(=O)O (stereo not drawn) (Boc-Ala-Phe-Gly-OH; configuration not given here) ; returns value.
Solution: > 100 µM

Problem: Can you look up TGI on EKVX NSCLC for N/N=C(/Cc1ccccc1)NNC(N)=S ?
Solution: > 100 µM

Problem: // map CC(C)(C)c1ccc2c(c1)C(O)(c1ccccc1)c1cc(C(C)(C)C)ccc1C2(O)C(F)(F)F (configuration not stated) to recorded TGI (system: EKVX NSCLC)
Solution: 9.85 µM

Problem: Could you share what TGI was measured for Oc1ccccc1N=Cc1c(O)ccc2ccccc12 , tested on EKVX NSCLC?
Solution: 57.8 µM

Problem: Param readout= TGI; system= EKVX NSCLC; entry= CC1C2C=CC1C(c1c3ccc(=O)c(O)c-3oc3c(O)c(O)ccc13)C2C(=O)O (configuration not stated) ; returns value.
Solution: > 100 µM

Problem: Could you share what TGI was measured for O=P(O)(O)OC1OC(CO)C(O)C(O)C1O (configuration not stated) , tested on EKVX NSCLC?
Solution: > 100 µM

Problem: Enter reported TGI observed with EKVX NSCLC for O=C(Nc1ccccc1)c1cc(S(=O)(=O)Nc2nc3ncccc3[nH]2)c(SSc2cc(Cl)c(C(=O)Nc3ccccc3)cc2S(=O)(=O)Nc2nc3ncccc3[nH]2)cc1Cl
Solution: > 100 µM

Problem: State its TGI on EKVX NSCLC: Cc1cnc(Cl)nc1C(C#N)c1nc2ccccc2s1 (configuration not stated)
Solution: > 100 µM

Problem: Hi! What's the reported TGI for NC(=O)NC(=O)c1cccc(NC(=O)CI)c1 on EKVX NSCLC?
Solution: 10.4 µM

Problem: Request: TGI, test system EKVX NSCLC, entry COc1ccc(/C(Cl)=C(\C=O)c2ccc(Cl)c(Cl)c2)cc1
Solution: 37.9 µM

Problem: Find TGI (EKVX NSCLC) for the entry CC(=O)N(C)c1ccc2ncccc2c1[N+](=O)[O-]
Solution: > 100 µM

Problem: API: value(readout=TGI, system=EKVX NSCLC) for record CNC(=S)N/N=C(\C)c1cc(OC)ccc1O
Solution: > 100 µM

Problem: Lookup: TGI / EKVX NSCLC / NC1CCC[C@H]1O (some centres not stated)
Solution: > 100 µM

Problem: Missing value: TGI, EKVX NSCLC, entry CC(C)c1cccc(C(C)C)c1NC(=S)N=Nc1cc(C(C)(C)C)c(O)c(C(C)(C)C)c1 . Fill in?
Solution: > 100 µM
